The reported numbers originate from patent US20020028938A1.

biological target: human amnionic whole cell cyclooxygenase-2 (WISH cells) (Homo sapiens, UniProt P35354); construct: endogenous in cells; experiment: IL-1β induced PGE2 production in WISH cells; conditions: read-out: Wish IC50 (parenthetical value)
Sequence (P35354 18-604): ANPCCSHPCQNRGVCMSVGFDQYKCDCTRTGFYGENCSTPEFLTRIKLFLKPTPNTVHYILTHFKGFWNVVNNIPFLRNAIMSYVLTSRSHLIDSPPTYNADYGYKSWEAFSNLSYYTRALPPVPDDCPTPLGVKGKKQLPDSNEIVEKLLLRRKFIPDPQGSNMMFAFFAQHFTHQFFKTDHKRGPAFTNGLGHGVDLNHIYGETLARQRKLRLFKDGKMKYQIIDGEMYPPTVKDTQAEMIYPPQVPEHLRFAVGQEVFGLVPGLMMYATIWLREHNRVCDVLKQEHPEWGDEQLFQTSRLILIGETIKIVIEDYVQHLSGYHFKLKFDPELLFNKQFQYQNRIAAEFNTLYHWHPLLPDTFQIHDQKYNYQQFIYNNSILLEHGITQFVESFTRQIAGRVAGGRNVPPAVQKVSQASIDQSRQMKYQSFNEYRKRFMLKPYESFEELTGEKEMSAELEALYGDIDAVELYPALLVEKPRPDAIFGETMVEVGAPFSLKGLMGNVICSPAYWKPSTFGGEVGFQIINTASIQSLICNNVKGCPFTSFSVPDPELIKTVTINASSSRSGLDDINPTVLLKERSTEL
observation type: IC50 (nM)

# annotated cases, reported IC50 shown
> print(dat)
                                   molecule                          target.or.system  observation.type  val
1  CS(=O)(=O)c1ccc(-c2cnn(Cc3ccccc3)c(=O)c2-c2ccc(Cl)c(Cl)c2)cc1  human amnionic whole cell cyclooxygenase-2 (WISH cells) (Homo sapiens, UniProt P35354)              IC50   20
2  CC(C)CCc1c(-c2ccc(S(N)(=O)=O)cc2)cnn(-c2ccc(F)cc2)c1=O  human amnionic whole cell cyclooxygenase-2 (WISH cells) (Homo sapiens, UniProt P35354)              IC50   20
3  CC(C)CCOc1c(-c2ccc(S(N)(=O)=O)cc2)cnn(-c2ccc(F)c(F)c2)c1=O  human amnionic whole cell cyclooxygenase-2 (WISH cells) (Homo sapiens, UniProt P35354)              IC50   25
4  CCC(CC)COc1c(-c2ccc(S(C)(=O)=O)cc2)cnn(-c2ccc(F)cc2)c1=O  human amnionic whole cell cyclooxygenase-2 (WISH cells) (Homo sapiens, UniProt P35354)              IC50   54
5  CS(=O)(=O)c1ccc(-c2cnn(-c3cccc(Cl)c3)c(=O)c2-c2ccc(F)cc2)cc1  human amnionic whole cell cyclooxygenase-2 (WISH cells) (Homo sapiens, UniProt P35354)              IC50   30
6  NS(=O)(=O)c1ccc(-c2cnn(CC(F)=C(F)F)c(=O)c2-c2ccc(F)cc2)cc1  human amnionic whole cell cyclooxygenase-2 (WISH cells) (Homo sapiens, UniProt P35354)              IC50    4
7  CS(=O)(=O)c1ccc(-c2cnn(-c3ccc(Cl)cc3F)c(=O)c2-c2ccc(F)cc2)cc1  human amnionic whole cell cyclooxygenase-2 (WISH cells) (Homo sapiens, UniProt P35354)              IC50   60

[P] CC(C)CSCc1c(-c2ccc(S(C)(=O)=O)cc2)cnn(-c2ccc(F)cc2)c1=O
[Q] CC(c1cc(F)cc(F)c1)n1ncc(-c2ccc(S(N)(=O)=O)cc2)c(-c2ccc(F)cc2)c1=O (stereo not drawn)
[ask] I'd appreciate it if you could identify which of P and Q has the greater IC50. Identify your selection by its label.
[reply] P
